B1: 1ZHC (parent)
chain: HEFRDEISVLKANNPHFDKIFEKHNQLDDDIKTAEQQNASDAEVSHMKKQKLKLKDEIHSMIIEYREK

Variants of: B1
Experiment: folding stability dG (cDNA display proteolysis); higher = more stable
Conditions: PBS, room temperature
Assign class by folding stability dG: not lower than 3 kJ/mol means Criterion met; lower than 3 kJ/mol means Criterion not met.

- Q36D: Criterion not met
- A39Y: Criterion met
- N13W: Criterion met
- K49D: Criterion met
- K48Q: Criterion not met
- S40F: Criterion not met

Given "S60Q" , state whether its folding stability dG is at least 3 kJ/mol.
Criterion met

Given "D28F" , state whether its folding stability dG is at least 3 kJ/mol.
Criterion not met

Given "F3G" , state whether its folding stability dG is at least 3 kJ/mol.
Criterion not met

Given "N14Q" , state whether its folding stability dG is at least 3 kJ/mol.
Criterion not met

Given "I7H" , state whether its folding stability dG is at least 3 kJ/mol.
Criterion not met

Given "E43V" , state whether its folding stability dG is at least 3 kJ/mol.
Criterion met

Given "E57S" , state whether its folding stability dG is at least 3 kJ/mol.
Criterion not met

Given "E43K" , state whether its folding stability dG is at least 3 kJ/mol.
Criterion met
